experimental details: label from the status in PepcDB records
measurement name: protein production

Below, each entry is followed by its recorded protein production result.
seq text: MNNIRLLNQNDLDSYIELMKFGHHNYEWDRYYLENVSIDRLKTILSNHTDYWNIFGAFEDDELVATCTLKQMNYVGKCHKAILENNFVKNNDEIVNRELINHIIQYAKEQNIETLMIAIASNNISAKVFFSSIGFENLAFEKNASKIGNEYFDENWLIYSTTE
measurement name: protein production
data value: failed
--
seq text: MSAVTYTFLGPQGTFTEAALMQVPGAADATRIPCTNVNTALERVRAGEADAAMVPIENSVEGGVTATLDAIATGQELRIIREALVPITFVLVARPGVELSDIKRISTHGHAWAQCRLWVDEHLPNADYVPGSSTAASAMGLLEDDAPYEAAICAPLIAAEQPGLNVLAEDIGDNPDAVTRFILVSRPGALPERTGADKTTVVVPLPEDHPGALMEILDQFASRGVNLSRIESRPTGQYLGHYFFSIDADGHATDSRVADALAGLHRISPATRFLGSYARADKQPAVVAPHTSDAAFASAHAWVDSILKGS
measurement name: protein production
data value: not failed
--
seq text: EDLSAQPVQTKFPAYERVVLREAGFLRPVTIFGPIADVAREKLAREEPDIYQIAKSEPRDAGTDQRSSGIIRLHTIKQIIDQDKHALLDVTPNAVDRLNYAQWYPIVVFLNPDSKQGVKTMRMRLCPESRKSARKLYERSHKLRKNNHHLFTTTINLNSMNDGWYGALKEAIQQQQNQLVWVSEGKADGAT
measurement name: protein production
data value: failed
--
seq text: MDFKIEKYLLKKAEELAFITIKHGGEFKLKSYEVPKGGLDVPIKNEVLVKGIKEKTAQDKLNSMSIADAMIYIIGIDSKFKNNAEYEKFLNALSKDIDLDLKSYMGYMSRKYFEIGEHTDSLIYIKAFITMYPDDLDAMYNYAIVCQEIAKQYQKDMDDKAMNAFLLEAMAKLEKVIDVDENFALGYYHLGYHYYNQGQYLKTKLTWEEALRLGLDADLVAEVQENLGKMDFKVQYEEGYTLVFQGKFKEGLEKLLPLEEEHMDWWNLLFMIALGYKGMGEIEQAKMYLEKILIIKPNQVDTIVELGLCEAYKNNLDKAIEYFEQAAKIKEDPEILCNLGMAYLNNGDIDDATYYIERAYELNPQDEITIVCLRELGINK
measurement name: protein production
data value: failed

stdin: Quick one: protein production for SAAVKDSCGKGEMATGNGRRLHLGIPEAVFVEDVDSFMKQPGNETADTVLKKLDEQYQKYKFMELNLAQKKGRLKGQIPEIKQTLEILKYMQKKKESTNSMETRFLLADNLYCKASVPPTDKVCLWLGANVMLEYDIDEAQALLEKNLSTATKNLDSLEEDLDFLRDQFTTTEVNMARVYNWDVKRRNKDDSTKNKA ?
stdout: not failed

stdin: Quick one: protein production for MVRLLHVSFVSHGAAWLPIHSCTGSHGQCERRAAGGPEAWATTPSLAAMPIDTRARQPSCDNRVMNDAALAPDVSAALERGLQAQSLDTAFAAPLLRYLALLVRWNKTYNLTAVRDPRAMVTRHLLDSLAMQPYIASGMLADLGTGPGLPGIPLAITRPQLQVTLVESNGKKARFMREALRHLELRNARVAESRAEALDEPTAYDHLTARALDTLAGIIAVGGHLLRPGGSLLAMKGIYPHEEIAALPEGWTMSEVHQLQVPGLDGERHLVVVRKA ?
stdout: failed
